- SYSTEM TESTED: T1, Cynomolgus TCR(AEA41865/AEA41866)-zipper protein (cynomolgus monkey)
- T1 construct: also called cyTCR-zipper protein; cynoTCR zipper
- T1 TCR alpha: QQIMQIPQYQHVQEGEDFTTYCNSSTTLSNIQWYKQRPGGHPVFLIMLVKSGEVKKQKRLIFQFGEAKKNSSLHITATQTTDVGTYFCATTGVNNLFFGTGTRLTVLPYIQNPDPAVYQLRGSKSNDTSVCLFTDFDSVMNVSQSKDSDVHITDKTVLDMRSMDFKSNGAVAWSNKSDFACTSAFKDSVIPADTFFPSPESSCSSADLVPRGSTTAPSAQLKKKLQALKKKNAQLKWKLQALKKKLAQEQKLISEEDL
- T1 TCR beta: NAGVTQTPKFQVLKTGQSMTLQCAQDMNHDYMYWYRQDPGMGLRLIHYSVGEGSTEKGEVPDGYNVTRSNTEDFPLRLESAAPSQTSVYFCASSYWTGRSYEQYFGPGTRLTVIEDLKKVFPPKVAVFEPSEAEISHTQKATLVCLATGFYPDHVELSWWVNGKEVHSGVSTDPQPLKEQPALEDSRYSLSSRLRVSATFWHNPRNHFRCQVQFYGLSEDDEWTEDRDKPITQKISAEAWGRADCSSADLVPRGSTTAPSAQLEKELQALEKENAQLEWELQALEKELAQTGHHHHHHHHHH
- PROTOCOL DESCRIPTION: SPR ProteOn off-rate screen
TEST READOUT: koff (s⁻¹)

BINDER: T017000301 (VHH) VHH: EVQLVESGGGVVQPGGSLRLSCVASGDVHKINFLGWYRQAPGKEREKVAHISIGDQTDYADSAKGRFTISRDESKNMVYLQMNSLRPEDTALYFCRAFSRIYPYAYWGQGTLVTVSS
koff [s⁻¹]: 0.0178

BINDER: T017000287 (VHH) VHH: EVQLVESGGGVVQPGGSLRLSCVASGDVHKINFLGWYRQAPGKEREKVAHISIGDQTDYADSAKGRFTISRDESKNMVYLQMNSLRPEDTALYFCRAFSRIYPYQYWGQGTLVTVSS
koff [s⁻¹]: 0.0121

BINDER: T017000294 (VHH) VHH: EVQLVESGGGVVQPGGSLRLSCVASGDVHKINFLGWYRQAPGKEREKVAHISIGDQTDYADSAKGRFTISRDESKNMVYLQMNSLRPEDTALYFCRAFSRIYPYDWWGQGTLVTVSS
koff [s⁻¹]: 0.0151
